Assay: Cytotoxicity against human Gastric mucosal cells measured after 24 hrs by CCK-8 assay
Assay type: toxicity, cell-based, Gastric mucosal cell
REPORTED_PROPERTY: CC50 at 24 h

Example results:
1. CCCCCCCC[N+](C)(C)CCCCCOc1cc(OCCCCC[N+](C)(C)CCCCCCCC)cc(OCCCCC[N+](C)(C)CCCCCCCC)c1.[Br-].[Br-].[Br-]    < 30 µg/mL
2. CCCCCCCC[N+](C)(C)CCCCOc1cc(OCCCC[N+](C)(C)CCCCCCCC)cc(OCCCC[N+](C)(C)CCCCCCCC)c1.[Br-].[Br-].[Br-]    < 153 µg/mL
3. CCCCCCCC[N+](C)(C)CCCOc1cc(OCCC[N+](C)(C)CCCCCCCC)cc(OCCC[N+](C)(C)CCCCCCCC)c1.[Br-].[Br-].[Br-]    < 30 µg/mL

[ask] Would you mind telling me what CC50 at 24 h value was observed for `C[N+](C)(CCCCCOc1cc(OCCCCC[N+](C)(C)CCCCc2ccccc2)cc(OCCCCC[N+](C)(C)CCCCc2ccccc2)c1)CCCCc1ccccc1.[Br-].[Br-].[Br-]` ?
[reply] < 30 µg/mL

[ask] What CC50 at 24 h value was documented for this compound, `C[N+](C)(CCCCCOc1ccccc1)CCCCCOc1cc(OCCCCC[N+](C)(C)CCCCCOc2ccccc2)cc(OCCCCC[N+](C)(C)CCCCCOc2ccccc2)c1.[Br-].[Br-].[Br-]` ?
[reply] < 30 µg/mL

[ask] I'd like to know its CC50 at 24 h. The compound in question is `CCCCCC[N+](C)(C)CCCCCOc1cc(OCCCCC[N+](C)(C)CCCCCC)cc(OCCCCC[N+](C)(C)CCCCCC)c1.[Br-].[Br-].[Br-]`
[reply] < 30 µg/mL

----------
System: Staphylococcus aureus
Assay: Antimicrobial activity against Staphylococcus aureus assessed as inhibition of growth incubated for 18 hrs by CLSI guidelines based assay
Assay type: functional
REPORTED_PROPERTY: MIC (µg/mL)
// units = µg/mL; emit number, no label

1. CCCCCCCCCC[N+](C)(C)CCCCCOc1cc(OCCCCC[N+](C)(C)CCCCCCCCCC)cc(OCCCCC[N+](C)(C)CCCCCCCCCC)c1.[Br-].[Br-].[Br-]    4
2. CCCCCCNC(=O)C[N+](C)(C)CCCCCCCCCCCC[N+](C)(C)CC(=O)NCCCCCC.[Br-].[Br-]    1
3. C[N+](C)(CCCCCOc1ccccc1)CCCCOc1cc(OCCCC[N+](C)(C)CCCCCOc2ccccc2)cc(OCCCC[N+](C)(C)CCCCCOc2ccccc2)c1.[Br-].[Br-].[Br-]    1

[ask] Field: MIC (Staphylococcus aureus). Entry: `CCCCCCCCCCCC[N+](C)(C)CCCCOc1cc(OCCCC[N+](C)(C)CCCCCCCCCCCC)cc(OCCCC[N+](C)(C)CCCCCCCCCCCC)c1.[Br-].[Br-].[Br-]`
[reply] 8

[ask] # returns recorded MIC (system: Staphylococcus aureus) for `CCCCCCCCCC[N+](C)(C)CCCOc1cc(OCCC[N+](C)(C)CCCCCCCCCC)cc(OCCC[N+](C)(C)CCCCCCCCCC)c1.[Br-].[Br-].[Br-]`
[reply] 1

[ask] // fetch Staphylococcus aureus MIC for `CCCCCCCC[N+](C)(C)CCCCOc1cccc(OCCCC[N+](C)(C)CCCCCCCC)c1OCCCC[N+](C)(C)CCCCCCCC.[Br-].[Br-].[Br-]`
[reply] 1
